assay: qHTS for induction of synthetic lethality in tumor cells producing 2HG: qHTS for the HT-1080-IDH1KD cell line; settings: HT-1080 IDH1 knockdown viability, ATP luminescence, 48 h; series mostly up to 46.1 µM
The whole screen tested about 360,000 compounds, of which about 7,500 (2.1%) were called active. Inconclusive results (about 8%) are left out. Calls come from the whole dose curve; as a rule, active = well fitted cell-killing curve with a large enough effect; inconclusive = small, poorly fitted or top-dose-only effect, or effect the other way, or another doubt; inactive = no such curve, though single readings can be large or run the other way. This is one part of a sample in which actives are shown more often than they occur.
Result category, one only: active, inactive

Take a look at these entries with their results.
                                   compound  discretelabel
0  COc1ccc(C(=O)Nc2ccccc2C(=O)N2CCN(c3ccccc3)CC2)cc1       inactive
1  CC1(C)C2CCC1(C)C(OC(=O)c1ccc(O)cc1)C2 (stereo unspecified)       inactive
2  O=C(Cc1csc(Nc2nc(=S)[nH]c3ccccc23)n1)NCCCN1CCN(c2cccc(Cl)c2)CC1         active
3  COc1ccc(C(=O)Nc2ccccc2C(=O)N/N=C/c2ccc(O)c(OC)c2)cc1         active
4  CCCCN1CC(N2CCN(Cc3cccc(C)c3)CC2)CS1(=O)=O (stereo unspecified)       inactive

Query: recorded result category for COc1ccc(C(C(=O)Nc2c(C)cccc2C)N2CCN(c3ccc(C)cc3)CC2)cc1 (stereo unspecified) in this test
inactive

Query: recorded result category for CC1(C(=O)NS(=O)(=O)C2CC2)CCCN(C(=O)CSc2ccccc2)C1 (stereo unspecified) in this test
inactive

----------
test: qHTS for induction of synthetic lethality in tumor cells producing 2HG: qHTS for the HT-1080-IDH1KD cell line; conditions: HT-1080 IDH1 knockdown viability, ATP luminescence, 48 h; series mostly up to 46.1 µM
The campaign covered roughly 360,000 compounds. About 7,500 (2.1%) were called active. Not shown: some 8% with an inconclusive outcome. The call rests on the fitted dose curve; in most records, active means well fitted cell-killing curve with a large enough effect; inconclusive means small, poorly fitted or top-dose-only effect, or effect the other way, or another doubt; inactive means no such curve, though single readings can be large or run the other way. The list comes from a sample in which actives are over-represented; it also holds close analogues and randomly drawn compounds.
Result category, one only: active, inactive

                                   molecule  discretelabel
0  CC(=O)c1ccc(-c2cnc3c(NC=O)cc(-c4cccc(NS(C)(=O)=O)c4)cn23)cc1         active

Query: recorded result category for COc1cccc(/C=N/Nc2ccc(S(=O)(=O)Nc3ccccc3C(=O)O)cc2[N+](=O)[O-])c1O in this test
inactive

Query: recorded result category for c1ccc(CNCc2ccc(CNCc3ccccc3)cc2)cc1 in this test
inactive

Query: recorded result category for C/C(=N/NC(=O)CCc1ccccc1)c1ccco1 in this test
inactive

Query: recorded result category for CCCCCCN1CCN(C2CN(Cc3cn(CCCCCC)nn3)S(=O)(=O)C2)CC1 (centres undefined) in this test
inactive

Query: recorded result category for CC1(C(=O)NS(=O)(=O)c2ccc(Cl)cc2)CCN1C(=O)CC1CCCC1 (centres undefined) in this test
inactive

----------
assay: qHTS for induction of synthetic lethality in tumor cells producing 2HG: qHTS for the HT-1080-IDH1KD cell line; settings: HT-1080 IDH1 knockdown viability, ATP luminescence, 48 h; series mostly up to 46.1 µM
Among all 360,000 compounds or so, about 7,500 (2.1%) were called active. Another 8% or so got no clear call; they are omitted. The call rests on the fitted dose curve; in most records, active means well fitted cell-killing curve with a large enough effect; inconclusive means small, poorly fitted or top-dose-only effect, or effect the other way, or another doubt; inactive means no such curve, though single readings can be large or run the other way. The entries come from a sample that favours actives as a whole.
Result category, one only: class 1 = active, class 0 = inactive

>>> df
                                   compound  discretelabel
0  Cc1ccc(-c2cnc(C(O)c3cccc(C)c3C)[nH]2)cc1 (stereo unspecified)        class 0
1  COc1ccc(OC)c(Cc2nnc(CCC(=O)NC3CCCC3)o2)c1        class 0
2  CC(Nc1nc(C(F)(F)F)nc2ccccc12)c1cccs1 (stereo unspecified)        class 1
3  COc1cc2nc(N3CCCN(C)CC3)nc(NC(C)C)c2cc1OC        class 0
4  C[C@H]1CN([C@@H](C)CO)C(=O)c2cc(-c3ccccc3F)cnc2O[C@H]1CN(C)C(=O)C1CCOCC1        class 0

Next item in the queue.
Query: recorded result category for C=CCn1c(Cn2nnc3ccccc32)nnc1SCC(=O)N/N=C/c1cc(Br)cc(OC)c1O in this test
class 0
